# Tested on: Plasmodium falciparum
# Assay Info: Antimalarial activity against chloroquine-resistant and mefloquine-sensitive Plasmodium falciparum W2 ring stage form infected in human erythrocytes by spectrophotometric analysis
# Format: functional, organism-based
Listing: pIC50 of selected compounds
Recall that pIC50 is obtained by taking minus log10 of the concentration measured in molar.

Compound: FC(F)(F)c1cc(Nc2ncccn2)c2cccc(C(F)(F)F)c2n1
pIC50: 5.08
--
Compound: FC(F)(F)c1cc(NC2CCCCC2)c2cccc(C(F)(F)F)c2n1
pIC50: 4.96
--
Compound: FC(F)(F)c1cc(Nc2nnc(C(F)(F)F)[nH]2)c2cccc(C(F)(F)F)c2n1
pIC50: 4.94

Now examine the next entry.
Give the reported pIC50 for FC(F)(F)c1cc(N2CCNCC2)c2cccc(C(F)(F)F)c2n1 (system: Plasmodium falciparum).
4.50

====

# Assay Info: Selectivity index, ratio of EC50 for African green monkey BGM cells to IC50 for chloroquine-resistant mefloquine-sensitive Plasmodium falciparum W2 ring stage form infected in human erythrocytes
# Assay type: toxicity, cell-based
# Experimental Context: read-out: Selectivity Index
Overview of recorded selectivity ratio for various compounds
Write the value as a bare number.

Completed entries (count: 3):
Compound: O[C@@H](c1cc(C(F)(F)F)nc2c(C(F)(F)F)cccc12)[C@H]1CCCCN1 (relative stereo) [(S,R)-MEFLOQUINE]
Assay Result: 789
--
Compound: Cc1nnc(Nc2cc(C(F)(F)F)nc3c(C(F)(F)F)cccc23)s1
Assay Result: 0.8
--
Compound: FC(F)(F)c1cc(Nc2ccc3ccccc3c2)c2cccc(C(F)(F)F)c2n1
Assay Result: 1.2

Now let's try a different one.
Please give the measured selectivity ratio for this compound: FC(F)(F)c1cc(N2CCNCC2)c2cccc(C(F)(F)F)c2n1
0.5

====

# Tested on: Plasmodium falciparum
# Assay Info: Antimalarial activity against chloroquine-resistant and mefloquine-sensitive Plasmodium falciparum W2 ring stage form infected in human erythrocytes by spectrophotometric analysis
# Type: functional, organism-based
Below, each of the molecules is paired with its reported pIC50 value.
Just so you know, pIC50 here is -log10 of the concentration in molar units; reply with that number alone.

Molecule: FC(F)(F)c1cc(Nc2nnc[nH]2)c2cccc(C(F)(F)F)c2n1
Assay System: Plasmodium falciparum
Assay Readout: pIC50
Assay Result: 5.54
--
Molecule: O[C@@H](c1cc(C(F)(F)F)nc2c(C(F)(F)F)cccc12)[C@H]1CCCCN1 (relative stereo) [(S,R)-MEFLOQUINE]
Assay System: Plasmodium falciparum
Assay Readout: pIC50
Assay Result: 7.72
--
Molecule: FC(F)(F)c1cc(Nc2ccncc2)c2cccc(C(F)(F)F)c2n1
Assay System: Plasmodium falciparum
Assay Readout: pIC50
Assay Result: 5.08
--
Molecule: Clc1ccc2c(Nc3ccncc3)ccnc2c1
Assay System: Plasmodium falciparum
Assay Readout: pIC50
Assay Result: 4.93
--
Molecule: Cc1nnc(Nc2cc(C(F)(F)F)nc3c(C(F)(F)F)cccc23)[nH]1
Assay System: Plasmodium falciparum
Assay Readout: pIC50
Assay Result: 7.08

Proceeding to the next molecule to report its pIC50.
Which pIC50 is reported for this molecule? COc1ccc(Nc2cc(C(F)(F)F)nc3c(C(F)(F)F)cccc23)cc1OC
5.32

====

# Assay Info: Selectivity index, ratio of EC50 for African green monkey BGM cells to IC50 for chloroquine-resistant mefloquine-sensitive Plasmodium falciparum W2 ring stage form infected in human erythrocytes
# Type: toxicity, cell-based
# Experimental Context: read-out: Selectivity Index
Assay Readout: selectivity ratio

Form field: reported selectivity ratio of FC(F)(F)c1cc(Nc2ncccn2)c2cccc(C(F)(F)F)c2n1
> 66.5

Query: selectivity ratio; subject: Oc1ccc(Nc2cc(C(F)(F)F)nc3c(C(F)(F)F)cccc23)cc1
< 27.9

What measured selectivity ratio goes with FC(F)(F)c1cc(Nc2ccccc2)c2cccc(C(F)(F)F)c2n1 ?
< 0.83
